Biological target: T1, hIL-18BP-hFc (human, UniProt O95998 31-194, limits assumed)
T1 sequence (looked up): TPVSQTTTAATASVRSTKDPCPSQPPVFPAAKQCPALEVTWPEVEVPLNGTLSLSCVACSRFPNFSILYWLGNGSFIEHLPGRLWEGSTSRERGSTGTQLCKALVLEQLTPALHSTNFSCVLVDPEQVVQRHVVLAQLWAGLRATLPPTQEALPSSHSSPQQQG
Assay: cell-based or functional assay
Kindly supply the reported EC50 Fold Change (+BP/-BP), hIL-18 reporter assay values for the records listed here.
Reply with just the number (in fold).

Tell us which EC50 Fold Change (+BP/-BP), hIL-18 reporter assay value is on record for IL-18 variant polypeptide M12 (ligand) YFPKLKSKLSVIRNLNDQVLFIDQGNRPLFEDMTDSDCRDNAPRTIFIISMYKGSGARGMAVTISVKCEKISTLSCENKIISFKEMNPPDTIKDTKSDIIFFQRSVPGHDNKMQFESSSYEGYFLACEKERDLFKLILKKEDELGDRSIMFTVQNED
0.75

Tell us which EC50 Fold Change (+BP/-BP), hIL-18 reporter assay value is on record for IL-18 variant polypeptide M5 (ligand) YFEKLTSKLSVIRNLNDQVLFIDQGNRPLFEDMTDSDCRDNAPRTIFIISMYKWSPWRGMAVTISVKCEKISTLSCENKIISFKEMNPPDVIKDTKSDIIFFQTSVPGHDNKMQFESSSYEGYFLACEKERDLFKLILKKEDELGDRSIMFTVQKED
0.95

Tell us which EC50 Fold Change (+BP/-BP), hIL-18 reporter assay value is on record for IL-18 variant polypeptide WM10 (ligand) YFPKLKSKLSVIRNLNDQVLFIDQGNRPLFEDMTDSDCRDNAPRTIFIISMYKDSQPRGMAVTISVKCEKISTLSCENKIISFKEMNPPDSIKDTKSDIIFFQRSVPGHDNKMQFESSSYEGYFLACEKERDLFKLILKKEDELGDRSIMFTVQNED
1.06

Tell us which EC50 Fold Change (+BP/-BP), hIL-18 reporter assay value is on record for IL-18 variant polypeptide M7 (ligand) YFPKLRSKLSVIRNLNDQVLFIDQGNRPLFEDMTDSDCRDNAPRTIFIISMYKHSTARGMAVTISVKCEKISTLSCENKIISFKEMNPPDAIKDTKSDIIFFQRSVPGHDNKMQFESSSYEGYFLACEKERDLFKLILKKEDELGDRSIMFTVQNED
1.67

Tell us which EC50 Fold Change (+BP/-BP), hIL-18 reporter assay value is on record for IL-18 variant polypeptide M27 (ligand) YFPKLRSKLSVIRNLNDQVLFIDQGNRPLFEDMTDSDCRDNAPRTIFIISMYKHSYTRGMAVTISVKCEKISTLSCENKIISFKEMNPPDVIKDTKSDIIFFQYSVPGHDNKMQFESSSYEGYFLACEKERDLFKLILKKEDELGDRSIMFTVQNED
1.44

Tell us which EC50 Fold Change (+BP/-BP), hIL-18 reporter assay value is on record for IL-18 variant polypeptide WM6 (ligand) YFDKLKSKLSVIRNLNDQVLFIDQGNRPLFEDMTDSDCRDNAPRTIFIISMYKDSQPRGMAVTISVKCEKISTLSCENKIISFKEMNPPDSIKDTKSDIIFFQRSVPGHDNKMQFESSSYEGYFLACEKERDLFKLILKKEDELGDRSIMFTVQNED
12.3

Tell us which EC50 Fold Change (+BP/-BP), hIL-18 reporter assay value is on record for IL-18 variant polypeptide M4 (ligand) YFPKLKSKLSVIRNLNDQVLFIDQGNRPLFEDMTDSDCRDNAPRTIFIISMYKWSGVRGMAVTISVKCEKISTLSCENKIISFKEMNPPDVIKDTKSDIIFFQFSVPGHDNKMQFESSSYEGYFLACEKERDLFKLILKKEDELGDRSIMFTVQNED
1.39

Tell us which EC50 Fold Change (+BP/-BP), hIL-18 reporter assay value is on record for IL-18 variant polypeptide M13 (ligand) YFPKLKSKLSVIRNLNDQVLFIDQGNRPLFEDMTDSDCRDNAPRTIFIISMYKQSIWRGMAVTISVKCEKISTLSCENKIISFKEMNPPDNIKDTKSDIIFFQRSVPGHDNKMQFESSSYEGYFLACEKERDLFKLILKKEDELGDRSIMFTVQNED
0.74

Tell us which EC50 Fold Change (+BP/-BP), hIL-18 reporter assay value is on record for IL-18 variant polypeptide M16 (ligand) YFPKLRSKLSVIRNLNDQVLFIDQGNRPLFEDMTDSDCRDNAPRTIFIISMYKSSRNRGMAVTISVKCEKISTLSCENKIISFKEMNPPDGIKDTKSDIIFFQSSVPGHDNKMQFESSSYEGYFLACEKERDLFKLILKKEDELGDRSIMFTVQNED
1.17

Tell us which EC50 Fold Change (+BP/-BP), hIL-18 reporter assay value is on record for IL-18 variant polypeptide M1 (ligand) YFPKLKSKLSVIRNLNDQVLFIDQGNRPLFEDMTDSDCRDNAPRTIFIISMYKHSDRRGMAVTISVKCEKISTLSCENKIISFKEMNPPDVIKDTKSDIIFFQVSVPGHDNKMQFESSSYEGYFLACEKERDLFKLILKKEDELGDRSIMFTVQNED
2.38

Tell us which EC50 Fold Change (+BP/-BP), hIL-18 reporter assay value is on record for IL-18 variant polypeptide M39 (ligand) YFPKLRSKLSVIRNLNDQVLFIDQGNRPLFEDMTDSDCRDNAPRTIFIISMYKWSPGRGMAVTISVKCEKISTLSCENKIISFKEMNPPDVIKDTKSDIIFFQLSVPGHDNKMQFESSSYEGYFLACEKERDLFKLILKKEDELGDRSIMFTVQNED
1.47

Tell us which EC50 Fold Change (+BP/-BP), hIL-18 reporter assay value is on record for IL-18 variant polypeptide M3 (ligand) YFPKLKSKLSVIRNLNDQVLFIDQGNRPLFEDMTDSDCRDNAPRTIFIISMYKWSHVRGMAVTISVKCEKISTLSCENKIISFKEMNPPDAIKDTKSDIIFFQYSVPGHDNKMQFESSSYEGYFLACEKERDLFKLILKKEDELGDRSIMFTVQNED
1.54

Tell us which EC50 Fold Change (+BP/-BP), hIL-18 reporter assay value is on record for IL-18 variant polypeptide M40 (ligand) YFDKLKSKLSVIRNLNDQVLFIDQGNRPLFEDMTDSDCRDNAPRTIFIISMYKPSSWRGMAVTISVKCEKISTLSCENKIISFKEMNPPDWIKDTKSDIIFFQRSVPGHDNKMQFESSSYEGYFLACEKERDLFKLILKKEDELGDRSIMFTVQNED
1.33
